All figures here come from PubChem BioAssay (NCATS).

Measured activity, negative = cell killing of individual entries
# procedure.summary: Drug repurposing screens with cells derived from glioblastoma tumor samples (AID 1345199); note: % is set by controls: 0 for no effect and ±100 for the full control effect; nearly all actives have a fitted effect of over 40% in size
# protocol.conditions: GBM patient neurospheres viability, ATP luminescence, 48 h; at 46 µM (top of the series); tumour line A
Inconclusive results are not listed.
Note: unit % is implicit; provide only the numeric part.

smiles.string	activity, negative = cell killing (%)
CC[C@@H](C)[C@H](N)C(=O)O	-37.7
O=C1C2CC3CC1CC(O)(C3)C2	-19.7

Q: // fetch activity, negative = cell killing given entry `O.O.O.O.O.O.O.O=S(=O)([O-])[O-].[Co+2]`
Result: -23.8

Q: // fetch activity, negative = cell killing given entry `CC(/C=C/C=C(\C)C(=O)O[C@@H]1O[C@H](CO[C@@H]2O[C@H](CO)[C@@H](O)[C@H](O)[C@H]2O)[C@@H](O)[C@H](O)[C@H]1O)=C\C=C\C=C(C)\C=C\C=C(/C)C(=O)O[C@@H]1O[C@H](CO[C@@H]2O[C@H](CO)[C@@H](O)[C@H](O)[C@H]2O)[C@@H](O)[C@H](O)[C@H]1O`
Result: -21.7

====

# Test system: KB-3-1
# procedure.summary: Cytotoxic Profiling of Annotated Libraries Using Quantitative High-Throughput Screening (AID 1296008); note: % is set by controls: 0 for no effect and ±100 for the full control effect; nearly all actives have a fitted effect of over 60% in size
# protocol.conditions: Five cell lines viability, CellTiter-Glo ATP luminescence, 48-72 h; stronger effect = lower value
# Procedure: Cell-based phenotypic screening is a commonly used approach to discover biological pathways, novel drug targets, chemical probes and high-quality hit-to-lead molecules. […] A pintool (Kalypsys) was used to transfer 23 nL of compound solution to the 1536-well assay plates. […] Plates were left at room temperature for 10 min before imaging the ATP-coupled luminescence using a ViewLux microplate imager (PerkinElmer, Waltham, MA).
Records with an inconclusive call do not appear.
readout.kind: max response (%)
Note: unit % is implicit; provide only the numeric part.

Example entries and their recorded answers appear below.
compound	assayed.system	val
CC1(C)S[C@@H]2[C@H](N3C(=O)C(c4ccccc4)NC3(C)C)C(=O)N2[C@H]1C(=O)O (stereo not given in full)	KB-3-1	3.76
CS(=O)(=O)OCC(O)C(O)COS(C)(=O)=O (stereo not given)	KB-3-1	-18.1
CCC(=O)OC(OP(=O)(CCCCc1ccccc1)CC(=O)N1C[C@H](C2CCCCC2)C[C@H]1C(=O)O)C(C)C (stereo not given in full)	KB-3-1	3.39
CC[C@@H](C(=O)[C@@H](C)[C@@H](O)[C@H](C)[C@@H]1O[C@@H]([C@@H](CC)C(=O)O)CC[C@@H]1C)[C@H]1O[C@]2(C=C[C@@H](O)[C@]3(CC[C@@](C)([C@H]4CC[C@](O)(CC)[C@H](C)O4)O3)O2)[C@H](C)C[C@@H]1C	KB-3-1	-24.3
C#C[C@]1(O)CC[C@@H]2[C@H]3CCC4=CC(=O)CC[C@H]4[C@H]3C(=C)C[C@@]21CC	KB-3-1	1.8
CCCCCc1ccc(C)cc1O	KB-3-1	-0.225

Let's switch to this compound now.
Q: // fetch max response; item: `Nc1nccs1` ; system: KB-3-1
Result: -12.3

====

# procedure.summary: MultiTox-Fluor Cytotoxicity Assay - LYMP1-002 - Live Cells (AID 955);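 note: cells exposed to compound for 16 hours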
# protocol.conditions: LYMP1-002 lymphoblastoid live-cell protease fluorescence viability; series mostly up to 46.1 µM
Results filed as inconclusive are left out. The source made the active and inactive calls. Calls follow the shape of the dose curve; as a rule, active = well fitted cell-killing curve with a large enough effect; inconclusive = small, poorly fitted or top-dose-only effect, or effect the other way; inactive = flat fitted curve, though single readings scatter.
The reply should name one outcome from 1 (active), -1 (inactive)

Reference set (3 entries):
compound	group
CC1=CCC2CC1C2(C)C (configuration not stated)	-1
NCCN	-1
COC(=O)c1ccccc1O	-1

Q: Hi, do you know how `O.O.O.O.O.O.O.O=S(=O)([O-])[O-].[Co+2]` came out in this test?
Result: -1

Q: Hi, do you know how `ClC(Cl)Cl` came out in this test?
Result: -1

Q: Hi, do you know how C=C1C(CCl)(CCl)C2(Cl)C(Cl)C(Cl)C1(Cl)C2(Cl)Cl (configuration not stated) came out in this test?
Result: -1

Q: Hi, do you know how `C[C@H]1O[C@@H](O[C@H]2[C@@H](O)C[C@H](O[C@H]3[C@@H](O)C[C@H](O[C@H]4CC[C@@]5(C)[C@H](CC[C@@H]6[C@@H]5C[C@@H](O)[C@]5(C)[C@@H](C7=CC(=O)OC7)CC[C@]65O)C4)O[C@@H]3C)O[C@@H]2C)C[C@H](O)[C@@H]1O` came out in this test?
Result: 1

====

# procedure.summary: P-glycoprotein substrates identified in KB-8-5-11 adenocarcinoma cell line, qHTS therapeutic library screen (AID 1346987); note: nearly all actives have a fitted effect of over 65% in size
# protocol.conditions: KB-8-5-11 (P-gp overexpressing) viability, CellTiter-Glo, 72 h; series mostly up to 44.5 µM
Results filed as inconclusive are left out. Active and inactive are the calls of the source. Calls come from the whole dose curve; as a rule, active = well fitted inhibition curve with a large enough effect; inconclusive = small, poorly fitted or top-dose-only effect; inactive = flat fitted curve, though single readings scatter.
The reply should name one outcome from True (active), False (inactive)

smiles.string	group
C=C1[C@@H]2CC[C@@H](C2)C1(C)C	False

Q: Hi, do you know how `Cc1cc(-c2ccc(N=Nc3ccc4c(S(=O)(=O)O)cc(S(=O)(=O)O)c(N)c4c3O)c(C)c2)ccc1N=Nc1ccc2c(S(=O)(=O)O)cc(S(=O)(=O)O)c(N)c2c1O` came out in this test?
Result: True

Q: Hi, do you know how `OC[C@H]1O[C@@H]2O[C@H]3[C@H](O)[C@@H](O)[C@@H](O[C@H]4[C@H](O)[C@@H](O)[C@@H](O[C@H]5[C@H](O)[C@@H](O)[C@@H](O[C@H]6[C@H](O)[C@@H](O)[C@@H](O[C@H]7[C@H](O)[C@@H](O)[C@@H](O[C@H]1[C@H](O)[C@H]2O)O[C@@H]7CO)O[C@@H]6CO)O[C@@H]5CO)O[C@@H]4CO)O[C@@H]3CO` came out in this test?
Result: False

====

# Test system: CP265
# procedure.summary: qHTS profiling for inhibitors of Plasmodium falciparum proliferation (AID 504749); note: nearly all actives have a fitted effect of over 60% in size
# protocol.conditions: P. falciparum in erythrocytes, SYBR Green DNA, 72 h; series mostly up to 28.7 µM
Inconclusive results are not listed. Calls of active or inactive are those of the source. Calls come from the whole dose curve; as a rule, active = well fitted inhibition curve with a large enough effect; inconclusive = small, poorly fitted or top-dose-only effect; inactive = flat fitted curve, though single readings scatter.
The reply should name one outcome from True for active, False for inactive

Reference set (3 entries):
compound	group
NCC[C@H](O)C(=O)N[C@@H]1C[C@H](N)[C@@H](O[C@H]2O[C@H](CN)CC[C@H]2N)[C@H](O)[C@H]1O[C@H]1O[C@H](CO)[C@@H](O)[C@H](N)[C@H]1O	False
CC(/C=C/C=C(\C)C(=O)O[C@@H]1O[C@H](CO[C@@H]2O[C@H](CO)[C@@H](O)[C@H](O)[C@H]2O)[C@@H](O)[C@H](O)[C@H]1O)=C\C=C\C=C(C)\C=C\C=C(/C)C(=O)O[C@@H]1O[C@H](CO[C@@H]2O[C@H](CO)[C@@H](O)[C@H](O)[C@H]2O)[C@@H](O)[C@H](O)[C@H]1O	False
CCCOC(=O)c1ccccc1O	False

Q: Hi, do you know how CN1c2c(nc(N)[nH]c2=O)NCC1CNc1ccc(C(=O)NC(CCC(=O)O)C(=O)O)cc1 (stereo unspecified) came out in this test?
Result: False

Q: Hi, do you know how `NC(=S)N=Nc1ccc(NN=C(N)N)cc1` came out in this test?
Result: True

Q: Hi, do you know how CN1C(C(=O)Nc2ccccn2)C(=O)c2sc(Cl)cc2S1(=O)=O (stereo unspecified) came out in this test?
Result: False

====

# Tested on: CP262
# procedure.summary: qHTS profiling for inhibitors of Plasmodium falciparum proliferation (AID 504749); note: nearly all actives have a fitted effect of over 60% in size; note: potency is the fitted concentration of half-maximal effect
# protocol.conditions: P. falciparum in erythrocytes, SYBR Green DNA, 72 h; series mostly up to 28.7 µM
Inconclusive results are not listed. The source made the active and inactive calls. Calls come from the whole dose curve; as a rule, active = well fitted inhibition curve with a large enough effect; inconclusive = small, poorly fitted or top-dose-only effect; inactive = flat fitted curve, though single readings scatter.
readout.kind: Potency

Example entries and their recorded answers appear below.
compound	Potency
O=C(CCCN1CCN2CCCC2C1)c1ccc(F)cc1 (configuration not stated)	inactive
CCC(C)[C@@H](N)C(=O)O (some centres not stated)	inactive
Oc1cc(O)cc(O)c1	inactive
OC/C=C/c1ccccc1	inactive
CN[C@@H]1[C@H](O[C@H]2[C@H](O[C@H]3[C@H](O)[C@@H](O)[C@H](N=C(N)N)[C@@H](O)[C@@H]3N=C(N)N)O[C@@H](C)[C@]2(O)C=O)O[C@@H](CO)[C@H](O)[C@H]1O	inactive

Q: // fetch Potency given entry `CCOC(=O)[C@@H](N)CS`
Result: inactive

====

# procedure.summary: Drug repurposing screens with cells derived from glioblastoma tumor samples (AID 1345199); note: % is set by controls: 0 for no effect and ±100 for the full control effect; nearly all actives have a fitted effect of over 40% in size
# protocol.conditions: GBM patient neurospheres viability, ATP luminescence, 48 h; at 45.9 µM (top of the series); tumour line D
Inconclusive results are not listed.
Measured activity, negative = cell killing of individual entries
Note: unit % is implicit; provide only the numeric part.

Example entries and their recorded answers appear below.
compound	measurement.unit	activity, negative = cell killing
O=C(O)[C@@H]1C[C@H](CP(=O)(O)O)CCN1	%	-11.9
CC1(C)S[C@@H]2[C@H](N3C(=O)C(c4ccccc4)NC3(C)C)C(=O)N2[C@H]1C(=O)O (some centres undefined)	%	-1.4
CC1(C)[C@@H]2CC[C@@]1(C)[C@H](OC(=O)CSC#N)C2	%	-12
COc1cc(C)c(/C=C/C(C)=C/C=C/C(C)=C/C(=O)O)c(C)c1C	%	8.72
CN[C@@H]1[C@@H](O)[C@@H](O[C@@H]2[C@@H](O)[C@H](O[C@H]3O[C@H](CN)[C@@H](O)[C@H](O)[C@H]3O)[C@@H](N)C[C@H]2NC(=O)C(O)CN)OC[C@]1(C)O (some centres undefined)	%	-1.91

Q: // fetch activity, negative = cell killing given entry `O=P(O)(O)OC[C@H]1O[C@](O)(COP(=O)(O)O)[C@@H](O)[C@@H]1O`
Result: -21.7

Q: // fetch activity, negative = cell killing given entry `CC(=O)OCC1=C(C(=O)O)N2C(=O)[C@@H](NC(=O)Cc3ccccc3)[C@H]2SC1`
Result: -15.2

Q: // fetch activity, negative = cell killing given entry `C[C@@H]1O[C@@H]1P(=O)(O)O`
Result: -16.5

Q: // fetch activity, negative = cell killing given entry `NC(=O)[C@H]1O[C@@H](O)[C@H](O)[C@@H](O)[C@@H]1O`
Result: -15.7

Q: // fetch activity, negative = cell killing given entry `CC/C=C\C/C=C\C/C=C\C/C=C\C/C=C\CCCC(=O)O`
Result: -0.692
